Target: unrelated Fc-fused recombinant protein
Assay Overview: ELISA, negative control Fc protein
Readout: ELISA Fc Control (RLU)

Below: 6 binders and their reported ELISA Fc Control (RLU).
ISOP193ER9P1A8 (designed binder, not shown: small tags and cut ends) LPAPKNLVVSRVTEDSARLSWTAPDAAFDSLDIYYFEHPVGGEAIVLTVPGSERSYDLTGLKPGTEYLVTIYGVKGGYLSMPLSAIFTT	1440
ISOP193HR9P1H10 (designed binder, not shown: small tags and cut ends) LPAPKNLVVSRVTEDSARLSWTAPDAAFDSFDIYYYELRLGGEAIVLTVPGSERSYDLTGLKPGTEYLVTIYGVKVCLGSNPLSAIFTT	43900
ISOP193ER9P1G5 (designed binder, not shown: small tags and cut ends) LPAPKNLVVSRVTEDSARLSWTAPDAAFDSFDIYYFEHPVGGEAIVLTVPGSERSYDLTGLKPGTEYLVTIYGVKGGYLSMPLSAIFTT	1440
ISOP193HR9P1F8 (designed binder, not shown: small tags and cut ends) LPAPKNLVVSRVTEDSARLSWTAPDAAFDSFDIYYYELRLGGEAIVLTVPGSERSYDLTGLKPGTEYLVTIYGVKVCYYSTPLSAIFTT	31300
ISOP193HR9P1G5 (designed binder, not shown: small tags and cut ends) LPAPKNLVVSRVTEDSARLSWTAPDAAFDSFDIYYYELRLGGEAIVLTVPGSERSYDLTGLKPGTEYLVTIYGVKGCAASDPLSAIFTT	24200
ISOP193AR9P1G5 (designed binder, not shown: small tags and cut ends) LPAPKNLVVSRVTEDSARLSWRISDRLPLFDSFLIQYQESEKVGEAIVLTVPGSERSYDLTGLKPGTEYTVSIYGVGRHYTVYDSNPLSAIFTT	1120

A = ISOP193FR9P1H6 (designed binder, not shown: small tags and cut ends) LPAPKNLVVSRVTEDSARLSWTAPDAAFDSFDINYFEQPKGGEAIVLTVPGSERSYDLTGLKPGTEYLVTIYGVKGCDWSDPLSAIFTT
B = ISOP193FR9P1E10 (designed binder, not shown: small tags and cut ends) LPAPKNLVVSRVTEDSARLSWTTPDAAFDSFHIHYLEGEWGGEAIVLTVPGSERSYDLTGLKPGTEYLVTIYGVKGCDWSDPLSAIFTT
C = ISOP193ER9P1G2 (designed binder, not shown: small tags and cut ends) LPAPKNLVVSRVTEDSARLSWTAPDAAFDSFDIYYFEQPVGGEAIVLTVPGSERSYDLTGLKPGTEYLVTIYGVKGGYLSMPLSAIFTT
Query string: Put the entries in order of ELISA Fc Control (RLU), starting with the largest number. Response format: the labels, sorted as the prompt asks.
Result string: B, A, C
(B: 133000 RLU, A: 88300 RLU, C: 1680 RLU)

These data points were gathered from patent US20220259289A1.
